- tested.target: FLT3 D835Y (Homo sapiens, UniProt P36888, D835Y)
- Construct: purchased Invitrogen (SelectScreen platform)
- Sequence (P36888 27-993 D835Y): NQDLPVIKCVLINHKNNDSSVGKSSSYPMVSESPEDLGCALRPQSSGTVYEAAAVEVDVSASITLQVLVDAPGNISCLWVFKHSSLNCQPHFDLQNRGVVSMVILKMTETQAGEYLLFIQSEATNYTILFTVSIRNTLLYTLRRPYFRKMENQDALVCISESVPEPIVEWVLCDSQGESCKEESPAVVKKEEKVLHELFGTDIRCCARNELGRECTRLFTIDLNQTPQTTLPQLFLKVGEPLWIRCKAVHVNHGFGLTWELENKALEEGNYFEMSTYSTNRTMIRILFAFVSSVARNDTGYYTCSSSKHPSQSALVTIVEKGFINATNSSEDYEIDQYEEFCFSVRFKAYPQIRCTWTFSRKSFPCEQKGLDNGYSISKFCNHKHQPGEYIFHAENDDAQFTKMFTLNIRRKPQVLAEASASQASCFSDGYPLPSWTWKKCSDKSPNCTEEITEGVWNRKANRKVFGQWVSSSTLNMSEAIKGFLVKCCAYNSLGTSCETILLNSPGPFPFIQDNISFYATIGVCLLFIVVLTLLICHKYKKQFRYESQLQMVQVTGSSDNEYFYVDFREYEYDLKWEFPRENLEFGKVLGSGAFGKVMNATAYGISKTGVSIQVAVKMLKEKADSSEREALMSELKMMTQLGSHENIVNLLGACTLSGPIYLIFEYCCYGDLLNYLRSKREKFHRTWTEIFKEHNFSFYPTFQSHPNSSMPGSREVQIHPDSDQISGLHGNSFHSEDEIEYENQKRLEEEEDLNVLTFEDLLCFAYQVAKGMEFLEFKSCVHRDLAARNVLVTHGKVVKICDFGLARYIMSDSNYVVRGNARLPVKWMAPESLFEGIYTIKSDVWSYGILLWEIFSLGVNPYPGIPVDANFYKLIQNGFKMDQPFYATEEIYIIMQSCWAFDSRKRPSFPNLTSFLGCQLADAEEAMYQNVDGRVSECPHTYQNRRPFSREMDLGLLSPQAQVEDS
- experimental.details: Kinase EC50 (10 pt curve or estimate, ATP Kmapp)
- Format: biochemical
- particulars: from 10 pt curve or estimate based on 1 μm inhibition assay at ATP Kmapp
pEC50: −log10 of the molar value.
Kindly return met if reported pEC50 is no lower than 8; return not met if it is lower.

CN(C)CCNc1ccc2ncn3c4ccc5[nH]ncc5c4c(=O)c1c23 [(XII)] : met
CCN(CC)CCCNc1ccc2ncn3c4ccc5[nH]ncc5c4c(=O)c1c23 [Compound (XV)] : met
CCN(CC)CCNc1ccc2ncn3c4ccc(O)cc4c(=O)c1c23 [Symadex, reference compound] : not met

Next, consider the following compound.
Reported pEC50 reaches at least 8 for CN1CCN(CCCNc2ccc3ncn4c5ccc6[nH]ncc6c5c(=O)c2c34)CC1 [(XVII)] ?
met
